System: CAL-85-1
Experiment: normalised viability (% of control), CellTiter-Blue; higher = more viable cells (about 100 = DMSO control)
Details: 10 nM; incubation time: 72 h
Lab note: cut-off is 90%. Strictly less in normalised viability is rule met. Exactly 90% or more is rule not met.

# example entries with known answers
>  <MOLECULE SMILES>
CN1CCC(COc2cnc(-c3cccc(Cn4nc(-c5cccc(C#N)c5)ccc4=O)c3)nc2)CC1

>  <ASSIGNED CLASS>
rule not met

$$$$
>  <MOLECULE SMILES>
COc1cc(Nc2ncc3c(n2)-c2ccc(Cl)cc2C(c2c(F)cccc2OC)=NC3)ccc1C(=O)O

>  <ASSIGNED CLASS>
rule not met

$$$$
>  <MOLECULE SMILES>
C=CC[C@@H]1/C=C(\C)C[C@H](C)C[C@H](OC)[C@H]2O[C@@](O)(C(=O)C(=O)N3CCCC[C@H]3C(=O)O[C@H](/C(C)=C/[C@@H]3CC[C@@H](O)[C@H](OC)C3)[C@H](C)[C@@H](O)CC1=O)[C@H](C)C[C@@H]2OC

>  <ASSIGNED CLASS>
rule not met

$$$$
>  <MOLECULE SMILES>
S=c1[nH]cnc2nc[nH]c12

>  <ASSIGNED CLASS>
rule not met

$$$$

Find out if reported normalised viability for CN(C)C/C=C/C(=O)Nc1cc2c(Nc3ccc(F)c(Cl)c3)ncnc2cc1O[C@H]1CCOC1 is less than 90%
rule met

====

Each item that follows carries a reported normalised response.
System: BT-549
Assay: normalised response (% of control), CellTox Green; higher = less cell death (100 = DMSO, 0 = benzethonium chloride kill control)
Conditions: incubation time: 72 h
Provide the reading as a plain figure in %.

For orientation, consider the following solved cases.
>  <MOLECULE>
CO[C@H]1C[C@@H]2CC[C@@H](C)[C@@](O)(O2)C(=O)C(=O)N2CCCC[C@H]2C(=O)O[C@H]([C@H](C)C[C@@H]2CC[C@@H](OC(=O)C(C)(CO)CO)[C@H](OC)C2)CC(=O)[C@H](C)/C=C(\C)[C@@H](O)[C@@H](OC)C(=O)[C@H](C)C[C@H](C)/C=C/C=C/C=C/1C [Temsirolimus] (10 nM)

>  <TARGET SYSTEM>
BT-549

>  <normalised response [%]>
134

$$$$
>  <MOLECULE>
CN(C)C/C=C/C(=O)Nc1cc2c(Nc3ccc(F)c(Cl)c3)ncnc2cc1O[C@H]1CCOC1 [Afatinib] (100 nM)

>  <TARGET SYSTEM>
BT-549

>  <normalised response [%]>
116

$$$$
>  <MOLECULE>
C[C@]1(c2nc3c(C(N)=O)cccc3[nH]2)CCCN1 [Veliparib] (10000 nM)

>  <TARGET SYSTEM>
BT-549

>  <normalised response [%]>
106

$$$$
>  <MOLECULE>
O=C(c1ccc(C(=O)N2CCC(N3CCCC3)CC2)c(Nc2ccccc2)c1)N1CCC(N2CCCC2)CC1 [UNC1215] (3000 nM)

>  <TARGET SYSTEM>
BT-549

>  <normalised response [%]>
85.1

$$$$
>  <MOLECULE>
CCN1CCN(c2ccc(Nc3cc(N(C)C(=O)Nc4c(Cl)c(OC)cc(OC)c4Cl)ncn3)cc2)CC1 [NVP-BGJ398] (10 nM)

>  <TARGET SYSTEM>
BT-549

>  <normalised response [%]>
95

$$$$

Any idea what its normalised response is? The molecule is COc1cccc2c1C(=O)c1c(O)c3c(c(O)c1C2=O)C[C@@](O)(C(=O)CO)C[C@@H]3O[C@H]1C[C@H](N)[C@H](O)[C@H](C)O1 [Doxorubicin] (100 nM)
160
